- testedTarget: T1, SARS-COV-2 RBD (SARS-COV-2, UniProt P0DTC2 319-539)
- T1 construct: also called WT RBD
- test: ELISA, RBD coated on plate
experimentalEndpoint: EC50 (ng/mL)
Kindly provide the numeric value in ng/mL only, without the unit symbol.

INSERT INTO measurements (binder, experimentalendpoint, experimentalresult) VALUES
  ('C921 (antibody, V domains shown) VH: QLQLQESGPGLVKPSETLSLTCAVSGGSISNSPFYWAWIRQPPGKGLECIGSIYYTGSTYYNPSLKSRVTISVDTSTKQFSLKLRSVTAADTAVYYCARHFADGSGRVVDYWGQGTLVTVSS VL: EIVLTQSPATLSLSPGERATLSCRASQSVTTYLAWYQQKPGQAPRLLIYDVSSRATGIPARFSGSGSGTDFTLTISSLEPEDFAVYYCQQRSNWPLYTFGQGTKLEIK', 'EC50', 3.91);

IN: Name the reported EC50 value associated with the binder C914 (antibody, V domains shown) VH: QVQLQESGPGLVKPSQTLSLTCTVSGGSITSGDYYWTWIRQPPGKGLEWIGYIYYSGNTYYNLSLRSRITISEDTSKNQFSLKLRSVTAADTAVYYCARAMITFGGVIVVLDYWGQGTLVTVSS VL: QSALTQPPSASGSPGQSVTISCTGTSTDVGGYNFVSWYQQHPGKAPKLMIYEVSKRPSGVPDRFSGSKSGNTASLTVSGLQAEDEADYYCSSYAGSNILYVFGTGTKVTVL
OUT: 1.59

IN: Name the reported EC50 value associated with the binder C1018 (antibody, V domains shown) VH: QVQLVESGGGVVQPGRSLRLLCAASGFTFNTHGMHWVRQAPGKGLEWVAVIWFDGSNKYYADSVKGRFTISRDNSTNTLYLQMNSLRAEDTAVYYCARVYGGLPYYYAIDVWGQGTTVTVSS VL: QSVLTQPPSVSGAPGQRVTISCAGSSSNIGAGYGVHWSQQLPGRPPKLLIYGDSNRPSGVPDRFSGSNSGTSASLAITGLQAEDEAVYYCQSYDRSLRAWVFGGGTKLSVL
OUT: 3.09

Numbers sourced from patent US20240218057A1.
